Every entry's value here was drawn from patent US20230167073A1.

target.or.system: Human TRPC6 (Homo sapiens, UniProt Q9Y210)
Construct: expressed in transfected cells
Sequence (Q9Y210 1-931): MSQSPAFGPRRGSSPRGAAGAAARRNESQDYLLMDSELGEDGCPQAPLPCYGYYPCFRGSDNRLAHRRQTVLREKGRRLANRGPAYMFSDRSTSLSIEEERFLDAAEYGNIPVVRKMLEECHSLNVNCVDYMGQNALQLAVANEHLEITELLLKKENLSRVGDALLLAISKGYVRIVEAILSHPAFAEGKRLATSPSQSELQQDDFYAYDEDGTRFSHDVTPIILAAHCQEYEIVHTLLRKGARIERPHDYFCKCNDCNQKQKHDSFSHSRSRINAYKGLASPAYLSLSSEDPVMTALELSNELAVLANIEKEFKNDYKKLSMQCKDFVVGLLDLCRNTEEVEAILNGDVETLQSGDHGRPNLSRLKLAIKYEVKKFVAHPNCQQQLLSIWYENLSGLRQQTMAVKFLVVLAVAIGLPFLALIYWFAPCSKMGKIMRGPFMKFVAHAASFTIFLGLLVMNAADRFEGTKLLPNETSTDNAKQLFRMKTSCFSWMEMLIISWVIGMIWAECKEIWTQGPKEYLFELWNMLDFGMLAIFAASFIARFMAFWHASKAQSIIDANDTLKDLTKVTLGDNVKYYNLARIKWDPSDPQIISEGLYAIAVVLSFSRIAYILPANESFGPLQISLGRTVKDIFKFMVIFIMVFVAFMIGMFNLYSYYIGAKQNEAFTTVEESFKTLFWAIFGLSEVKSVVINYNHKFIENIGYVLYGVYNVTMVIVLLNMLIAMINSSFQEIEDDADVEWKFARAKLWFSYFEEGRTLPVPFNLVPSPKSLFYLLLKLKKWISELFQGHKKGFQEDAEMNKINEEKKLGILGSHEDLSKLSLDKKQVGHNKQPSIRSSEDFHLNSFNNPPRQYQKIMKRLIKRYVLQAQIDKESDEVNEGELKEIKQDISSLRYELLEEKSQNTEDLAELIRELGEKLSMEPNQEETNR
protocol.notes: Evaluation of TRPC6 channel inhibitory activity (1), FLIPR Calcium 5 Assay Kit, OAG stimulation (Compound Nos. 1-1293)
Type: cell-based
condition.info: Human TRPC6 stably-expressing cells, OAG 30 μM, FLIPR Calcium 5 Assay Kit; read-out: Inhibitory activity (pIC50 class) (converted)

smiles.data | IC50
N#Cc1ccc(-c2ccc(CCN)cc2)c(Oc2cnnc(-c3ccccc3C(=O)O)c2)c1 | > 1000 nM
CN(CC(F)F)c1cc(Oc2cc(C#N)ccc2-c2ncc(CN)cn2)n(C)n1 | < 10 nM
N#Cc1ccc(-c2ncc(CN)cn2)c(C(=O)c2cnn(C3CCC3)c2)c1 | < 10 nM
Cn1nc(C2CC2)cc1Oc1cc(C#N)ccc1-c1ncc([C@H](O)CN)cn1 | < 10 nM
Cn1nc(C2CC2)cc1Oc1cc(C#N)ccc1-c1ccc(C[C@H](N)C(=O)O)cn1 | > 1000 nM
Cn1nc(C(C)(C)C)cc1Oc1cc(C#N)ccc1-c1ccc([C@H](O)CN)cn1 | < 10 nM
CCCCc1cc(Oc2cc(C#N)ccc2-c2ncc(CCN)cn2)n(C)n1 | < 10 nM
C[C@@H](N)c1cnc(-c2ccc(C#N)cc2Oc2cc(-c3ccccn3)nn2C)nc1 | < 10 nM
Cc1cc(Sc2cc(C#N)ccc2-c2ncc(CN)cn2)cc(N2CCOCC2)n1 | > 1000 nM
N#Cc1ccc(-c2ccc(CCN)cn2)c(Oc2cnnc(N3CCOCC3)c2)c1 | > 1000 nM
Cn1nc(-c2nccs2)cc1Oc1cc(C#N)ccc1-c1ccc(CCN)cn1 | < 10 nM
Cc1nc(Oc2cc(C#N)ccc2-c2ncc(CCN)cn2)cc(N2CCC2)n1 | 10 to 1000 nM
N#Cc1ccc(-c2ccc(CCN)cc2)c(Oc2cnnc(OC3CCCC3)c2)c1 | 10 to 1000 nM
